Recorded values, source patent US12686690B2.

target: hOX2R (Homo sapiens, UniProt O43614); construct: expressed in transfected cells; host or cells: CHO cells (G418 selection); experiment: hOX2R IPone assay (orexin receptor agonism); format: cell-based; details: maximal activation, IPone readout
Let's look at some compounds and their measured hOX2R_Ipone max %act.
A number alone suffices; assume %.

Illustrative cases are given below, each with its answer.
CCN1C(=O)NC(CCC(F)(F)F)C(C)CCCOc2nc(cn3ccnc23)-c2cccc(c2)[C@H]1C (single isomer, unassigned) [Example 42B]    99.1
CCN1C(=O)NC(CCOC)CCCCCOc2nc(cn3ccnc23)-c2cc(ncc2OC)[C@H]1C (single isomer, unassigned) [Example 56A]    101.7
CCOCC1CCCCCOc2nc(cn3ccnc23)-c2cc(ncc2OC)[C@@H](C)N(CC)C(=O)N1 (single isomer, unassigned) [Example 62B]    100.9
CCN1C(=O)N[C@@H](CCC(F)(F)F)CCCCCOc2nc(cn3ccnc23)-c2cc(cnc2C)[C@H]1C [Example 78]    99.0
CCN1C(=O)N[C@@H](CCC(F)(F)F)CCCCCOc2nc(cn3ccnc23)-c2ccnc(c2)[C@@H]1C [Example 30]    98.5
CCN1C(=O)N[C@@H](CCC(F)(F)F)CCCCCOc2cc(cn3ccnc23)-c2cc(ncn2)C1C (single isomer, unassigned) [Example 96B]    100.5
CCN1C(=O)N[C@@H](CCC(F)(F)F)CCCCCOc2nc(cn3ccnc23)-c2nc(ncc2C)[C@H]1C [Example 93B]    100.6
CCN1C(=O)N[C@@H](c2nccnc2C)CCCCCOc2nc(cn3ccnc23)-c2cc(ncc2OC)[C@H]1C [Example 152]    106.5

Query: Supply hOX2R_Ipone max %act measured with hOX2R (Homo sapiens, UniProt O43614) for CCN1C(=O)NC(CCC(F)(F)F)CC(C)CCOc2nc(cn3ccnc23)-c2cccc(c2)[C@H]1C (single isomer, unassigned) [Example 48B] .
Result: 99.9

Query: Return reported hOX2R_Ipone max %act for target or system hOX2R (Homo sapiens, UniProt O43614), item CCN1C(=O)NC(CCC(F)(F)F)C(C)/C=C\COc2nc(cn3ccnc23)-c2cccc(c2)[C@H]1C (single isomer, unassigned) [Example 41C] .
Result: 98.9

Query: Name the recorded hOX2R_Ipone max %act of CCN1C(=O)NC(CC2CC2(F)F)CCCCCOc2nc(cn3ccnc23)-c2cc(ncc2OC)[C@H]1C (single isomer, unassigned) [Example 59D] , assay system hOX2R (Homo sapiens, UniProt O43614).
Result: 100.9

Query: # return hOX2R_Ipone max %act for CCN1C(=O)NC(CCCC(F)F)CCCCCOc2nc(cn3ccnc23)-c2cc(ncc2OC)[C@H]1C (stereo partly shown) [Example 184] , test system: hOX2R (Homo sapiens, UniProt O43614)
Result: 101.1

Query: Provide hOX2R_Ipone max %act, tested on hOX2R (Homo sapiens, UniProt O43614), for CCN1C(=O)NCC(C(F)(F)F)N(C)CCOc2nc(cn3ccnc23)-c2cccc(c2)[C@H]1C (single isomer, unassigned) [Example 25A] .
Result: 96.6

====

Target: hOX2R (Homo sapiens)
Sequence (O43614 1-444): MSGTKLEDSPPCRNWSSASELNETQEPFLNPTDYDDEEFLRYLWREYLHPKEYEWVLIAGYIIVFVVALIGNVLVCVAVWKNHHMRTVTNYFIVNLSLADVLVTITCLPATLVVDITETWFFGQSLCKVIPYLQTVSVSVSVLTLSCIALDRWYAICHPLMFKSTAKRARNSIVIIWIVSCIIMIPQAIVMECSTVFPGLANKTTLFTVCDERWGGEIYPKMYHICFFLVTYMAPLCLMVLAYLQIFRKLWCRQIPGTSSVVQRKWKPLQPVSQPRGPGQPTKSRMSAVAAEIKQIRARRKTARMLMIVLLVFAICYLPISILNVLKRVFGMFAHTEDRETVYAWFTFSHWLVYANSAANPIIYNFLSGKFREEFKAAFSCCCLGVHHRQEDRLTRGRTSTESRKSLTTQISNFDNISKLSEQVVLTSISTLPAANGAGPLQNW
Experiment: hOX2R IPone assay (orexin receptor agonism)
Details: orexin receptor agonist, IPone readout; read-out: hOX2R_IPone EC50
observable: pEC50
Reminder that pEC50 means the negative base-10 logarithm of the concentration expressed in mol/L.

Previously resolved entries follow.
CCN1C(=O)N[C@@H](CCC(F)(F)F)CCOCCOc2nc(cn3ccnc23)-c2cc(ccn2)[C@H]1C [Example 161]    8.58
CCN1C(=O)N[C@@H](CCC(F)(F)F)CCCCCOc2cc(cc3ccnn23)-n2nc(cc2C2CC2)C1C (mixture of isomers) [Example 210]    8.28
CCN1C(=O)NC(CC2CC2)CCCCCOc2nc(cn3ccnc23)-c2cc(ncc2OC)[C@H]1C (single isomer, unassigned) [Example 55A]    7.10
CCN1C(=O)N[C@@H](CCS(C)(=O)=O)CCCCCOc2nc(cn3ncnc23)-c2cc(ncc2OC)[C@H]1C [Example 154]    8.98
CCN1C(=O)N[C@@H](CCC(F)(F)F)CCCCCOc2cc(nn3c(C)cnc23)-c2cc(ncc2OC)[C@H]1C [Example 168]    8.63
CCN1C(=O)NCCCNCCOc2nc(cn3ccnc23)-c2cccc(c2)[C@H]1C [Example 11]    6.11
CCN1C(=O)NCCCOCCOc2nc(cn3ccnc23)-c2cc(ncc2OC)[C@H]1C [Example 7]    8.34
CCN1C(=O)NC(CC2(C)CC2)CCCCCOc2nc(nn3ccnc23)-c2cc(ncc2OC)[C@H]1C (some centres unmarked) [Example 206]    8.68
CCN1C(=O)NC(CCC(F)(F)F)CCC(F)(F)CCOc2nc(cn3ccnc23)-c2cc(ncc2OC)[C@H]1C (single isomer, unassigned) [Example 121A]    8.01
CCN1C(=O)N[C@@H](CCC(F)(F)F)CCCCCOc2nc(cn3ccnc23)-c2cc(cc(C)n2)[C@H]1C [Example 118B]    8.59

Query: Supply measured pEC50 of CCN1CCCOc2nc(cn3ccnc23)-c2cccc(c2)[C@@H](C)N(CC)C(=O)NCC1 [Example 15] in your reply.
Result: 5.93

====

biological target: hOX2R (Homo sapiens); construct: expressed in transfected cells; host or cells: CHO cells (G418 selection); assay: hOX2R IPone assay (orexin receptor agonism); assay type: cell-based; conditions: maximal activation, IPone readout
observable: hOX2R_Ipone max %act (%)
Give a bare numeral; the unit % is implied.

Here's what some known entries look like.
CCN1C(=O)NC(C2CC2(F)F)CCCCCOc2nc(cn3ccnc23)-c2cc(ncc2OC)[C@H]1C (stereo partly shown) [Example 192]    100.9
CCN1C(=O)NC(C2CCOCC2)CCCCCOc2nc(cn3ccnc23)-c2cc(ncc2OC)[C@H]1C (single isomer, unassigned) [Example 68B]    101.5
CCN1C(=O)NC(CCOC(F)F)CCCCCOc2nc(cn3ccnc23)-c2cc(ncc2OC)[C@H]1C (stereo partly shown) [Example 182]    98.9

Kindly review the next compound as well.
Query: Note down hOX2R_Ipone max %act recorded for CCN1C(=O)NCCCCCCOc2nc(cn3ccnc23)-c2cc(ncc2OC)[C@H]1C [Example 85]
Result: 100.5

====

The reader will find reported pEC50 values listed item by item below.
Target: hOX2R (Homo sapiens)
Sequence (O43614 1-444): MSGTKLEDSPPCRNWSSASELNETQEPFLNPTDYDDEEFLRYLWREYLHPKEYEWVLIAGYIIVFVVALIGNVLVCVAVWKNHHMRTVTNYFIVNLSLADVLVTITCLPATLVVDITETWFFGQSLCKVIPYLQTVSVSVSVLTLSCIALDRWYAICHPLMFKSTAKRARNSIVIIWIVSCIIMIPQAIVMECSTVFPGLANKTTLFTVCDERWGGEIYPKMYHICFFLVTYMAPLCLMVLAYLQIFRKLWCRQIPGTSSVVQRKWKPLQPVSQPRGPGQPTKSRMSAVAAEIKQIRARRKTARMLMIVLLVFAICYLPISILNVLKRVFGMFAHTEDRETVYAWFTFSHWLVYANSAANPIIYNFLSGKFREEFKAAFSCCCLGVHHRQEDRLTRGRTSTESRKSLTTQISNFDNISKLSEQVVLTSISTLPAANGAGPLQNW
Assay: hOX2R IPone assay (orexin receptor agonism)
Details: orexin receptor agonist, IPone readout; read-out: hOX2R_IPone EC50
Just so you know, pEC50 here is -log10 of the concentration in molar units; reply with that number alone.

Some compounds with recorded pEC50:
CCN1C(=O)NC(CCOC(F)F)CCCCCOc2nc(cn3ccnc23)-c2cc(ncc2OC)[C@H]1C (stereo partly shown)    9.07
CCN1Cc2cnc(OC)c(c2)-c2nc(c3nccn3n2)OCCCCC[C@H](CCC(C)(F)F)NC1=O    8.85
CCN1C(=O)NC(CCC(F)(F)F)C(C)CCCOc2nc(cn3ccnc23)-c2cccc(c2)[C@H]1C (single isomer, unassigned) [Example 42B]    6.81
CCN1C(=O)NC(CCC(F)(F)F)C(C)/C=C\COc2nc(cn3ccnc23)-c2cccc(c2)[C@H]1C (single isomer, unassigned) [Example 41A]    6.94
CCN1C(=O)N[C@@H](CCC(F)(F)F)CCCCOc2nc(cn3cc(C)nc23)-c2cc(ncc2OC)C1C(F)(F)F (single isomer, unassigned) [Example 36B]    8.05

Query: Look up and state reported pEC50 for CCN1C(=O)N[C@@H](C(F)(F)F)CCCCOc2nc(cn3ccnc23)-c2cc(ncc2OC)C1C(F)(F)F (single isomer, unassigned) [Example 39A]
Result: 7.22

Query: Please supply the value of reported pEC50 for the item CCN1C(=O)NCCC2CCC(C2)Oc2nc(cn3ccnc23)-c2cccc(c2)C1C (stereo not shown)
Result: 6.90
